Data credit: the supplement of paper PMC10567573

B1: SPDEF (parent)
chain: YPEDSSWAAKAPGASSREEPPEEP

# Variants of: B1
# Assay name: protein stability index of a GFP-peptide fusion (GPS, HEK-293T) (PSI 1-6); higher = more stable;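 also: lentivirally expressed fusions sorted by FACS into six bins by GFP to DsRed ratio, PSI derived from sequencing read proportions per bin multiplied by bin number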
# Measurement conditions: c terminus: a fixed tail appended
List of protein stability index values.
Value type: protein stability index

1) YPEDSSWAAKAPGASSREEPREEP [P21R] | 4.25
2) YPEDSSWAAKAPLASSREEPPEEP [G13L] | 4.09
3) YPEDSSWAAKAPGASSREEPPEEE [P24E] | 3.48
4) YPEDSSWAAAAPGASSREEPPEEP [K10A] | 2.79
5) YPEDSHWAAKAPGASSREEPPEEP [S6H] | 4.38
6) YPEDSSWAAKALGASSREEPPEEP [P12L] | 3.33
7) YPEDSIWAAKAPGASSREEPPEEP [S6I] | 2.51
8) YPEDSSWPAKAPGASSREEPPEEP [A8P] | 5.38
9) YPEDSSWAAKAPGASSRTEPPEEP [E18T] | 3.24
10) YPEDSSWAAKAPGASSREELPEEP [P20L] | 3.11
11) YPEDSSWAAKPPGASSREEPPEEP [A11P] | 4.6
12) YPEDSSWAATAPGASSREEPPEEP [K10T] | 3.36
13) YPEDSSWAAKAPGASSHEEPPEEP [R17H] | 4.67
14) YPEDSSWAAKAPGASSREEPPEEH [P24H] | 3.42
15) YPEDSSNAAKAPGASSREEPPEEP [W7N] | 5.91
16) YPEDSSWAEKAPGASSREEPPEEP [A9E] | 5.42
17) YPEDSSWAAKAPGASSREEPVEEP [P21V] | 3.91
18) YPEDSSWAAKAPGASSRNEPPEEP [E18N] | 3.43
19) YPEDSSWAAKAPGAGSREEPPEEP [S15G] | 3.53
20) YPEDSSWAAKAPGASSREEPPFEP [E22F] | 3.43
21) YPEDSSWAAKMPGASSREEPPEEP [A11M] | 2.63
22) YPEDSSWAAKAPGASSRFEPPEEP [E18F] | 3.05
23) YPEDSSWAAKAPGMSSREEPPEEP [A14M] | 3.15
24) YPEDSSWAAKAPGASSREEPPSEP [E22S] | 2.71
25) YPEDSSWAAKRPGASSREEPPEEP [A11R] | 4.78
26) YPEDSSWAAKAPGASSREEPPEGP [E23G] | 3.9
27) YAEDSSWAAKAPGASSREEPPEEP [P2A] | 1.79
28) YPEDSSVAAKAPGASSREEPPEEP [W7V] | 5.52
29) YDEDSSWAAKAPGASSREEPPEEP [P2D] | 5.73
30) YPDDSSWAAKAPGASSREEPPEEP [E3D] | 4.24
31) YPEDSSWAAKAPGASSREEPPEKP [E23K] | 2.69
32) YPEDSSWAAKAPGESSREEPPEEP [A14E] | 3.88
33) YPEDSSWAAKAPGASSREEPPERP [E23R] | 3.6
34) YPEDSSWAAKHPGASSREEPPEEP [A11H] | 4.13
35) YPEDSSWAAKAPGASSREETPEEP [P20T] | 3.8
36) YPEDSSWAAKAPGASHREEPPEEP [S16H] | 3.92
37) YPEDSSWAAKAPGASSRVEPPEEP [E18V] | 4.17
38) YPFDSSWAAKAPGASSREEPPEEP [E3F] | 2.99
39) YPEDSSWAAKLPGASSREEPPEEP [A11L] | 3.76
40) YPEDSSWAAKAPGASSRQEPPEEP [E18Q] | 3.37
41) VPEDSSWAAKAPGASSREEPPEEP [Y1V] | 5.76
42) YPNDSSWAAKAPGASSREEPPEEP [E3N] | 2.49
43) YPEDSSWAAKAPGASSRESPPEEP [E19S] | 4.97
44) YPEDSSWARKAPGASSREEPPEEP [A9R] | 4.36
45) YPEDSSWAAKAPGASDREEPPEEP [S16D] | 4.23
46) TPEDSSWAAKAPGASSREEPPEEP [Y1T] | 5.68
47) YPEDSSWAAKAPGATSREEPPEEP [S15T] | 3.97
48) YPEDSSWFAKAPGASSREEPPEEP [A8F] | 3.33
49) YPEDSSWDAKAPGASSREEPPEEP [A8D] | 5.61
50) YPEDSSWAAKIPGASSREEPPEEP [A11I] | 3.51
51) YPEDSSWAAKAPGASSREEIPEEP [P20I] | 3.82
52) YPEDSSWAAKAPGASSREEPPGEP [E22G] | 2.79
53) YPEDSSWAAKAPGASNREEPPEEP [S16N] | 3.53
54) YPEDSSWAAKAPGASSVEEPPEEP [R17V] | 4.3
55) YPEDESWAAKAPGASSREEPPEEP [S5E] | 5.72
56) YPEDSSWAAKAPGASSREEPTEEP [P21T] | 3.64
57) YPEDSSRAAKAPGASSREEPPEEP [W7R] | 5.96
58) YPEDFSWAAKAPGASSREEPPEEP [S5F] | 3.86
59) YPEDSSWAKKAPGASSREEPPEEP [A9K] | 3.97
60) YPEDSSWAAKADGASSREEPPEEP [P12D] | 3.97
61) YPEDSSWAAKAPGASSREEVPEEP [P20V] | 4.26
62) YPEDSSWAAKAPGASSREENPEEP [P20N] | 3.62
